Give protein stability index for every item shown.
B1: ZNF449 (parent)
chain: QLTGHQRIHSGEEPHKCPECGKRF

# Variants of: B1
# TEST_METHOD_NOTES: protein stability index of a GFP-peptide fusion (GPS, HEK-293T) (PSI 1-6); higher = more stable;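 further: lentivirally expressed fusions sorted by FACS into six bins by GFP to DsRed ratio, PSI derived from sequencing read proportions per bin multiplied by bin number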
# MEASUREMENT_PARAMETERS: c terminus: a fixed tail appended
Numbers only.

INSERT INTO assay_data (primary_sequence, property_measured, data_value) VALUES
  ('QLTGHQRIHSGEEPNKCPECGKRF [H15N]', 'protein stability index', 4.52),
  ('QLTGHQRVHSGEEPHKCPECGKRF [I8V]', 'protein stability index', 3.63),
  ('QLTRHQRIHSGEEPHKCPECGKRF [G4R]', 'protein stability index', 3.69);

Record protein stability index for all entries; do not skip any.
1. QLTGLQRIHSGEEPHKCPECGKRF [H5L]
2. QLTGHQRIHSGEEPHKCPECGNRF [K22N]
3. QLTGRQRIHSGEEPHKCPECGKRF [H5R]
4. QLVGHQRIHSGEEPHKCPECGKRF [T3V]
5. QLTGHQRIHLGEEPHKCPECGKRF [S10L]
6. QLTGHQRIHSGEEPHKCPECTKRF [G21T]

[3.45, 4.16, 4.03, 3.12, 4.12, 4.47]
